Target: T1, natriuretic peptide receptor-B (human)
T1 chain: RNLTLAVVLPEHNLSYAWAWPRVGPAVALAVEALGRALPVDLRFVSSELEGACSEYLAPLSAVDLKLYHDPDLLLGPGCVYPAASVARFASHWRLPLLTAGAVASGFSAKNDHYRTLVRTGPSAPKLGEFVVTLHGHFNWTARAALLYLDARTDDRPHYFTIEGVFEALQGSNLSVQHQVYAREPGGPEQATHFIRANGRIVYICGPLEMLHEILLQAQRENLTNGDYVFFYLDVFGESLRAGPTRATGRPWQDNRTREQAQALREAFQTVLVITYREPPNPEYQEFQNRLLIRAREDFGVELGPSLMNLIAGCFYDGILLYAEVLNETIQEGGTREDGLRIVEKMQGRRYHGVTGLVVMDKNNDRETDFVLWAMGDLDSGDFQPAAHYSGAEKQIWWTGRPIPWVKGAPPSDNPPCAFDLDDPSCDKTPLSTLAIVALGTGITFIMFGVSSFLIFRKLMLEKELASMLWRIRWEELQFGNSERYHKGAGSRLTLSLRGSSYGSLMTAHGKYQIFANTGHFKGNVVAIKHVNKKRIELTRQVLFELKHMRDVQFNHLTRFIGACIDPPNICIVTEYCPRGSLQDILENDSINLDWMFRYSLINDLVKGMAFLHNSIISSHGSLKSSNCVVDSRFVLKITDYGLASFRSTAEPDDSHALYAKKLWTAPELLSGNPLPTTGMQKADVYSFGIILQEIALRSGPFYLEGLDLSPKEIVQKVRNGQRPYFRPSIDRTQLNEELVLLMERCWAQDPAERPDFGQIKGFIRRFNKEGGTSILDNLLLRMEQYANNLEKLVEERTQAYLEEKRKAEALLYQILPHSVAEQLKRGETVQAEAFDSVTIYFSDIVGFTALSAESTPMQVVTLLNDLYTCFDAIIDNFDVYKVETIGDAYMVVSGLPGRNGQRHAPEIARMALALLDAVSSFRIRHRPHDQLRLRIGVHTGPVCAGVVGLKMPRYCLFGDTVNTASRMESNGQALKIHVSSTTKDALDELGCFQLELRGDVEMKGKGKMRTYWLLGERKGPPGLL
Assay: cell-based or functional assay
Numbered stars: 1 amine (or outer) side, 2 acyl side, 3 side chain; on linkers, the order of the positions; unused ones are H or OH. Square brackets hold non-standard residues; d marks the D form. Ends that are not written are not given here. * marks the point of attachment. Pro(trans-4-NH2) = O=C([C@@H]1C[C@@H](N[*:3])CN1[*:1])[*:2]; Sni = (S)-nipecotic acid, O=C([C@H]1CCCN([*:1])C1)[*:2]; 1695 = Piperidine-1,2-dicarboxylic acid 1-benzyl ester; Azetidine3carboxylic = O=C(C1CN([*:1])C1)[*:2]; Hyp = O=C(O)[C@@H]1C[C@@H](O)CN1; Tic = O=C(O)[C@@H]1Cc2ccccc2CN1; 3Thi = N[C@@H](Cc1ccsc1)C(=O)O; AR‑314‑171 = not defined here; NMeL = CN[C@@H](CC(C)C)C(=O)O; Octanoyl = CCCCCCCC(=O)*; Che = not defined here; Dap = NC[C@H](N)C(=O)O; leu = not defined here; Occ = octanoic acid
test-readout: EC50 group, cGMP in GTM-3 cells

>  <binder>
1695-[Sni]F[dL]L[Hyp][NMeL]DRI-NH2 (not fully specified; printed as 1695-Sni-Phe-leu-Leu-Hyp-Nml-Asp-Arg-Ile-NH2) [JAL-1617]

>  <EC50 group, cGMP in GTM-3 cells>
≤ 15 µM

$$$$
>  <binder>
Octanoyl-AFRL[Pro(trans-4-NH2)]LDRI-NH2 (not fully specified (some residues); printed as Occ-ala-Phe-arg-Leu-Tap-Leu-Asp-Arg-Ile-NH2) [JAL-1250]

>  <EC50 group, cGMP in GTM-3 cells>
≤ 1 µM

$$$$
>  <binder>
[AR‑314‑171]F[leu]L[Hyp][NMeL]DRI-NH2 (reading uncertain; also: printed as (AR-314-171)-Phe-leu-Leu-Hyp-Nml-Asp-Arg-Ile-NH2) [JAL-1870-2]

>  <EC50 group, cGMP in GTM-3 cells>
≤ 15 µM

$$$$
>  <binder>
[Occ][Sni]F[leu]L[Hyp][NMeL]EP[Che] (reading uncertain; also: printed as Occ-Sni-Phe-leu-Leu-Hyp-Nml-Glu-Pro-Che) [JAL-1652]

>  <EC50 group, cGMP in GTM-3 cells>
≤ 5 µM

$$$$
>  <binder>
[Occ]A[3Thi]GLPLDRI-NH2 (not fully specified (residue 2); printed as Occ-ala-Thk-Gly-Leu-Pro-Leu-Asp-Arg-Ile-NH2) [JAL-1003]

>  <EC50 group, cGMP in GTM-3 cells>
≤ 15 µM

$$$$
>  <binder>
Octanoyl-[Azetidine3carboxylic]F[dR]L[Hyp][NMeL]DRI-NH2 [JAL-1275]

>  <EC50 group, cGMP in GTM-3 cells>
≤ 5 µM

$$$$
>  <binder>
Octanoyl-AF[leu]L[Hyp][NMeL]D[Dap]I-NH2 (not fully specified (some residues); printed as Occ-ala-Phe-leu-Leu-Hyp-Nml-Asp-Udp-Ile-NH2; reading uncertain) [JAL-1482]

>  <EC50 group, cGMP in GTM-3 cells>
≤ 5 µM

$$$$

Now let's try a different one.
Any idea what EC50 group, cGMP in GTM-3 cells was measured for Octanoyl-[dA]F[dR]L[Hyp][Tic]DRI-NH2 [JAL-1396] ? ≤ 5 µM
